# ASSAY SUMMARY: Pharmacokinetics after single intraarticular injection in beagle dogs (plasma and synovial fluid)
# Type: in vivo
# CONDITION SUMMARY: both sexes, dog, synovial fluid, single intraarticular injection 3 mg/kg, mean
OUTCOME MEASURE: AUC(0-t) (µg·h/mL)
Field format: number, assumed µg·h/mL, no unit text.

response.value for `CO[C@H]1/C=C/O[C@@]2(C)Oc3c(C)c(O)c4c(O)c(c(/C=N/N5CCC(N(C)C6([C@@H]7CCN(c8c(F)cn9c(=O)c(C(=O)O)cc(C%10CC%10)c9c8C)C7)CC6)CC5)c(O)c4c3C2=O)NC(=O)/C(C)=C\C=C\[C@H](C)[C@H](O)[C@@H](C)[C@@H](O)[C@@H](C)[C@H](OC(C)=O)[C@@H]1C` (field: AUC(0-t)) = 1000

====

# ASSAY SUMMARY: Pharmacokinetics after single intraarticular injection in beagle dogs (plasma and synovial fluid)
# Type: in vivo
# CONDITION SUMMARY: both sexes, dog, plasma, single intraarticular injection 3 mg/kg, mean
OUTCOME MEASURE: half-life
Respond with a number, then the unit of measure.

response.value for `CO[C@H]1/C=C/O[C@@]2(C)Oc3c(C)c(O)c4c(O)c(c(/C=N/N5CCC(N(C)C6([C@@H]7CCN(c8c(F)cn9c(=O)c(C(=O)O)cc(C%10CC%10)c9c8C)C7)CC6)CC5)c(O)c4c3C2=O)NC(=O)/C(C)=C\C=C\[C@H](C)[C@H](O)[C@@H](C)[C@@H](O)[C@@H](C)[C@H](OC(C)=O)[C@@H]1C` (field: half-life) = 12 h

====

# ASSAY SUMMARY: Pharmacokinetics after single intraarticular injection in beagle dogs (plasma and synovial fluid)
# Assay type: in vivo
# CONDITION SUMMARY: both sexes, dog, plasma, single intraarticular injection 3 mg/kg, mean
OUTCOME MEASURE: AUC(0-t) (ng·h/mL)
Field format: number, assumed ng·h/mL, no unit text.

response.value for `CO[C@H]1/C=C/O[C@@]2(C)Oc3c(C)c(O)c4c(O)c(c(/C=N/N5CCC(N(C)C6([C@@H]7CCN(c8c(F)cn9c(=O)c(C(=O)O)cc(C%10CC%10)c9c8C)C7)CC6)CC5)c(O)c4c3C2=O)NC(=O)/C(C)=C\C=C\[C@H](C)[C@H](O)[C@@H](C)[C@@H](O)[C@@H](C)[C@H](OC(C)=O)[C@@H]1C` (field: AUC(0-t)) = 20800
